Molecular target: human recombinant 15-PGDH (Homo sapiens, UniProt P15428)
Sequence (P15428 1-266): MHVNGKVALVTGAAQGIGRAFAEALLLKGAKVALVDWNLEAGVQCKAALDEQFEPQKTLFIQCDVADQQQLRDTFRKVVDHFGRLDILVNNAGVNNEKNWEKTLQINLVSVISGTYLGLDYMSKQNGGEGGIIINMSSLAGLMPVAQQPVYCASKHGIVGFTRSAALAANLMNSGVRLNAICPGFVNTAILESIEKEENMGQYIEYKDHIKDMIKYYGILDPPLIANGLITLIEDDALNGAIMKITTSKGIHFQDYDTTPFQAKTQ
Assay: Recombinant 15-PGDH enzymatic inhibition assay (PGDH-Lumi, NADH signal)
Settings: recombinant 15-PGDH; 15 min pre-incubation, 60 min reaction with PGE2 and NAD+, NADH signal
valueType: IC50 (nM)
Value expressed in nM; do not type the unit.

# value lookup — system human recombinant 15-PGDH (Homo sapiens, UniProt P15428), readout IC50, item COCC(O)(c1cc2ccc(-c3cnc4nn(C)cc4c3)nc2s1)C(F)(F)F (stereo not shown) [Compound C16]
235

# value lookup — system human recombinant 15-PGDH (Homo sapiens, UniProt P15428), readout IC50, item Cc1c2ccc(-c3cnc4nn(C)cc4c3)nc2sc1[C@]1(O)C[C@@H](C(F)(F)F)C1 [Compound C78C]
1.03

# value lookup — system human recombinant 15-PGDH (Homo sapiens, UniProt P15428), readout IC50, item CC(O)c1cc2c(-c3ccnn3C)cc(-c3ccnn3C)nc2s1 (stereo not shown) [Compound B9]
17700

# value lookup — system human recombinant 15-PGDH (Homo sapiens, UniProt P15428), readout IC50, item Cn1cc2cc(-c3ccc4cc([C@@H](O)C5CCOCC5)sc4n3)cnc2n1 [Compound B15S]
150
